What Fibril / Fibril Formation was measured for each of the following?
- Format: physicochemical
- Set-up: key: 1 = fibrils present; 0 non-fibrillar structures
- EXPERIMENTAL_SETUP: TEM, 1 mg/mL, uranyl acetate stain, qualitative
Form rule: numeric answer, no unit written next to it.

Which Fibril / Fibril Formation is reported for this substance? `KIKIQIN`
1

Record: `KVKVQVVV`
1

Record: `CKAKAQANMWQ`
0

Record: `HHHHKIKIQINMYYYY`
1

Record: `KYKYQY`
0

Record: `EIEIQINMWQ`
0

Record: RATVYV [reference compound]
1

Record: `CEIEIQINMWQ`
1

Record: `CEFEFQF`
1

Record: `QCKIKIQINM`
1

Record: `QCKIKIQINMWQ`
1

Record: `NMWQKIKIQI`
1

Record: `KFKFQFN`
1

Record: NKGAII [reference compound]
0

Record: `RINFWFW`
0

Record: KLVFFAK [reference compound]
1

Record: `QCKIKQII`
1

Record: RCELARTLKR [reference compound]
0

Record: `HHHHEIEIEIEI`
0

* * *

What b -sheet / % was measured for each of the following?
- PROTOCOL_TEXT: β-sheet content by ATR-FT-IR
- Type: physicochemical
- EXPERIMENTAL_SETUP: Fig. S7 panel A; β-sheet content by ATR-FT-IR
Just the number in %, nothing appended.

Which b -sheet / % is reported for this substance? `KIKIQINAWQ`
27.74

Record: `KIKIQIW`
49.1721

Record: `EFEFQF`
44.93

Record: `EIEIQINMWQ`
53.91

Record: `KIKIQIN`
41.82

Record: `CKFKQFFNM`
41.58

Record: `CKIKIQINM`
42.84

Record: `KWKWQW`
30.47

Record: `EIEIEIEI`
62.61

Record: `KVKVQVV`
45.1

Record: `CKAKAQANMWQ`
39.38

Record: `KIKIQINMWQRGD`
47.72

Record: `CKFKFQFW`
42.53

Record: `TKTLTKTL`
34.38

Record: `HHHHEIEIEIEI`
48.37

Record: `KVKVQVVV`
45.8125

Record: `CEFEFQFNMWQ`
51.48

Record: `CSISIQI`
58.57

Record: `KAKAKAQA`
39.62

Record: `KNERIKNERI`
37.95

Record: `CKYKYQY`
49.12

* * *

- Format: physicochemical
- EXPERIMENTAL_SETUP: relative to blank 42.1851851851852 a.u.
- Experimental: 4 µL of 1 mg/mL peptide fibrils solution is added to a 20 µL, 50 µM ThT–solution in PBS. The mixture is incubated for 15 min at RT to allow binding of ThT dye with β–sheet rich structures. […] Fluorescence spectra were recorded on an Infinite® M1000 PRO microplate reader (Tecan) at λem = 488 nm upon excitation at λex = 440 nm with 10 nm bandwidths and multiple reads per well (3×3). […] Furthermore, fluorescence microscopy was conducted by staining 1 µL preformed fibrils (1 mg/mL) with 9 µL ThT (50 µM). […]
# if measured Tht rel to blank (42.1851851851852) < 3: criterion met  # else: criterion not met

Strictly below 3 in Tht rel to blank (42.1851851851852)? KFKFQFNMW [BL5 / KB13]
criterion met

Record: QCKAKAQANMWQ [CK22]
criterion met

Record: KAKAQANMWQ [JG3]
criterion met

Record: CKIKIQINMWQ [MG1]
criterion not met

Record: CRFRFQF [CN10]
criterion not met

Record: QCKFKQFFNMWQ [CK10]
criterion not met

Record: CKFKQFFNMWQ [CK13]
criterion not met

Record: KIKIKIKIWWWW [TM12]
criterion met

Record: KIKIQIW [TM69]
criterion met

Record: CSISIQI [TM141]
criterion not met

Record: KFKFQFFF [TG12]
criterion met

Record: CSISIQINM [TM145]
criterion not met

Record: CKIKIQINMW [TM86]
criterion met

Record: KFKFQFW [TM71]
criterion not met

Record: CHLHLQL [CN9]
criterion not met

Record: RGDKIKIQINM [MG8a / CN17]
criterion not met

Record: KIKIQI [JJA4]
criterion met

Record: QCKFKQFF [CK12]
criterion met

Record: CKFKFQF [BL4]
criterion met

Record: CKFKQFF [CK15]
criterion met

Record: CKIKIQIII [AR0 / F19]
criterion not met

Record: KIKIQIII [TG7]
criterion met

Record: CKAKAQANMWQ [BL8]
criterion met

Record: RGDKIKIQIC [MG7/CN1]
criterion not met

Record: CKYKYQY [KB2]
criterion not met

Record: QCKIKIQINM [CK2]
criterion met

Record: CKFKFQFNMW [KB14]
criterion not met

Record: CKIKIQI [MG3b]
criterion not met

Record: QCKAKAQA [CK24]
criterion met

Record: KIKIQINMWQRGD [VH17-II]
criterion met

Record: MKIKIQINMWQ [TM52]
criterion not met

Record: CKIKQIINM [BL1]
criterion not met

Record: KIKIQINMWWQ [VH11]
criterion met

Record: KIKIQINM [JGB2]
criterion met

Record: CRFRVPF [CN8]
criterion met

Record: KFKFQFNMWQ [JG4]
criterion met

Source of measurements: paper PMC10447463
